# study.target: Acetylcholinesterase (Bos taurus, UniProt P23795)
# Sequence (P23795 whole entry): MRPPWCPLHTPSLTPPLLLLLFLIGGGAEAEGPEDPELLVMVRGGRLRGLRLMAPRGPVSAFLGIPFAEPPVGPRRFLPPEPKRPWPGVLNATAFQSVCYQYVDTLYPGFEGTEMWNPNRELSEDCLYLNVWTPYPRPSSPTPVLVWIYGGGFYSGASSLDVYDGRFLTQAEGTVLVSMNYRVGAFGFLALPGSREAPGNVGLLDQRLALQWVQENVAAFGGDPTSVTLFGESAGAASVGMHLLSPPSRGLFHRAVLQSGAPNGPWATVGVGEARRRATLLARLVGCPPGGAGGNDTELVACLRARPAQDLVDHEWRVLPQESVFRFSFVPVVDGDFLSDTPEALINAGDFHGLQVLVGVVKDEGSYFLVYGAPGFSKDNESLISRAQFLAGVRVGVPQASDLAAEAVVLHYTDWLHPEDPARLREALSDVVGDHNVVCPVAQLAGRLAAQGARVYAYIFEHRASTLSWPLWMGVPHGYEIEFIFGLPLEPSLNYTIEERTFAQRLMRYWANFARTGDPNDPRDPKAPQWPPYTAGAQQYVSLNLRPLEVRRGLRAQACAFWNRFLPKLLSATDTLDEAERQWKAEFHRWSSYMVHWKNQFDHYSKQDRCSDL
Mark each entry 1 if its IC50 sits below 50 nM, and -1 for all others.

Threshold test, IC50 < 50 nM: `O=C(NCCCCCCCCCCCCNc1c2c(nc3ccccc13)CCCC2)c1cc(=O)c2ccccc2o1`
-1

Criterion: IC50 strictly below 50 nM. Is it met by `COc1cc2oc(C(=O)NCCCCCCCCCCNc3c4c(nc5cc(Cl)cc(Cl)c35)CCCC4)cc(=O)c2cc1OC` ?
-1

Here's an entry: `COc1cc(O)c2c(=O)cc(C(=O)NCCCCCCCCCCNc3c4c(nc5cc(Cl)ccc35)CCCC4)oc2c1.Cl` . Is its IC50 below 50 nM?
1

Is it true that IC50 reported for `COc1cc2oc(C(=O)NCCCCCCCCCCNc3c4c(nc5cc(Cl)ccc35)CCCC4)cc(=O)c2cc1OC.Cl` is less than 50 nM?
1

Identify whether the compound `Cl.O=C(NCCCCCCCCCCNc1c2c(nc3cc(Cl)ccc13)CCCC2)c1cc(=O)c2cc(O)ccc2o1` records IC50 below 50 nM.
-1

Confirm or reject: IC50 of `O=C(NCCCCCCCCCNc1c2c(nc3ccccc13)CCCC2)c1cc(=O)c2ccccc2o1` lies strictly below 50 nM
-1

Decide: IC50 of `COc1cc(O)c2c(=O)cc(C(=O)NCCCCCCCCCCNc3c4c(nc5ccccc35)CCCC4)oc2c1.Cl` strictly below 50 nM?
-1

* * *

# study.target: Acetylcholinesterase (Bos taurus, UniProt P23795)
pIC50: −log10 of the molar value.
Classification field: enter label 1 for pIC50 values not below 7, label 0 for values below it.

Is it the case that `COc1ccc2oc(C(=O)NCCCCCCCCCCNc3c4c(nc5cc(Cl)ccc35)CCCC4)cc(=O)c2c1.Cl` has pIC50 reaching or exceeding 7?
label 1

Check the entry `Cl.O=C(NCCCCCCCCCCNc1c2c(nc3ccccc13)CCCC2)c1cc(=O)c2c(O)cc(O)cc2o1` : does pIC50 equal or exceed 7?
label 0

Is the recorded value of pIC50 equal to or greater than 7 for this molecule? `Cl.O=C(NCCCCCCCCCCNc1c2c(nc3cc(Cl)ccc13)CCCC2)c1cc(=O)c2cc(O)c(O)cc2o1`
label 1

Determine whether measured pIC50 meets or exceeds 7 for `Cl.O=C(NCCCCCCCCCCNc1c2c(nc3cc(Cl)ccc13)CCCC2)c1cc(=O)c2ccccc2o1`
label 1

* * *

endpoint.name: pIC50
Please treat pIC50 as minus the base-10 logarithm of the molar concentration.

Query pIC50 on Cholinesterase (Homo sapiens) for `Cl.O=C(NCCCCCCCCCCNc1c2c(nc3ccccc13)CCCC2)c1cc(=O)c2c(O)cc(O)cc2o1`
Sequence (P06276 whole entry): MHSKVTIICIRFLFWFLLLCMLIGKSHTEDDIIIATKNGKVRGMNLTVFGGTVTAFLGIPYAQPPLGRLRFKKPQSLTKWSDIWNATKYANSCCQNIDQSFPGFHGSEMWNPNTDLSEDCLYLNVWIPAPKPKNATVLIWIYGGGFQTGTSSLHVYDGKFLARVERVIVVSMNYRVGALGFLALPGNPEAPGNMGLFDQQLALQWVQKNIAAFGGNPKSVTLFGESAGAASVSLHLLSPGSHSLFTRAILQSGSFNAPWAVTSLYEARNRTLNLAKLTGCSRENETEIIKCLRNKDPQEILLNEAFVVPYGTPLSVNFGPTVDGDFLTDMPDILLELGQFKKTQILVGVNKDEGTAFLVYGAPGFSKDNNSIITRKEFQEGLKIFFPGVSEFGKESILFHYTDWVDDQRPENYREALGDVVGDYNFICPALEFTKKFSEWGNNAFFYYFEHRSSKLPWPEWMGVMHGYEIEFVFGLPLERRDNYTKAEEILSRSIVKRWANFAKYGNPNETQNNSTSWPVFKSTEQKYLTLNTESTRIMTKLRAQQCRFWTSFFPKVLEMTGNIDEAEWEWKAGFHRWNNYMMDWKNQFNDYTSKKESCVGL
9.10

Write down the reported pIC50 of `COc1cc(OC)c2c(=O)cc(C(=O)NCCCCCCCCCCNc3c4c(nc5cc(Cl)ccc35)CCCC4)oc2c1.Cl` , test system: Cholinesterase (Homo sapiens).
10.00

Hello, I am looking for reported pIC50 with Cholinesterase (Homo sapiens) for `COc1ccc2oc(C(=O)NCCCCCCCCCCNc3c4c(nc5ccccc35)CCCC4)cc(=O)c2c1.Cl` . Could you help?
10.42

// lookup pIC50 | system=Cholinesterase (Homo sapiens) | key= `COc1cc2oc(C(=O)NCCCCCCCCCCNc3c4c(nc5ccccc35)CCCC4)cc(=O)c2cc1OC.Cl`
7.82

Lab note: need pIC50 with Cholinesterase (Homo sapiens) for entry `Cl.O=C(NCCCCCCCCCCNc1c2c(nc3ccccc13)CCCC2)c1cc(=O)c2cc(O)c(O)cc2o1` , please look it up.
7.52

Recorded pIC50 for `COc1cc2oc(C(=O)NCCCCCCCCCCNc3c4c(nc5cc(Cl)ccc35)CCCC4)cc(=O)c2cc1OC.Cl` with Cholinesterase (Homo sapiens), please?
7.30

// lookup pIC50 | system=Cholinesterase (Homo sapiens) | key= `Cl.O=C(NCCCCCCCCCCNc1c2c(nc3cc(Cl)ccc13)CCCC2)c1cc(=O)c2cc(O)c(O)cc2o1`
7.02

Could you share what pIC50 was measured for `COc1cc(O)c2c(=O)cc(C(=O)NCCCCCCCCCCNc3c4c(nc5ccccc35)CCCC4)oc2c1.Cl` , tested on Cholinesterase (Homo sapiens)?
9.00

Param readout= pIC50; system= Cholinesterase (Homo sapiens); entry= `Cl.O=C(NCCCCCCCCCCNc1c2c(nc3ccccc13)CCCC2)c1cc(=O)c2ccccc2o1` ; returns value.
9.82

API: value(readout= pIC50, system= Cholinesterase (Homo sapiens), query= `Cl.O=C(NCCCCCCCCCCNc1c2c(nc3cc(Cl)ccc13)CCCC2)c1cc(=O)c2cc(O)ccc2o1` )
8.82

Tell me reported pIC50 for `Cl.O=C(NCCCCCCCCCCNc1c2c(nc3ccccc13)CCCC2)c1cc(=O)c2cc(O)ccc2o1` , tested with Cholinesterase (Homo sapiens).
8.82

State its pIC50 on Cholinesterase (Homo sapiens): `COc1ccc2oc(C(=O)NCCCCCCCCCCNc3c4c(nc5cc(Cl)ccc35)CCCC4)cc(=O)c2c1.Cl`
10.00

State its pIC50 on Cholinesterase (Homo sapiens): `COc1cc(O)c2c(=O)cc(C(=O)NCCCCCCCCCCNc3c4c(nc5cc(Cl)ccc35)CCCC4)oc2c1.Cl`
8.30

Reported pIC50 for Cholinesterase (Homo sapiens), given `Cl.O=C(NCCCCCCCCCCNc1c2c(nc3cc(Cl)ccc13)CCCC2)c1cc(=O)c2ccccc2o1` ?
10.10

Identify the measured pIC50 of `COc1cc(OC)c2c(=O)cc(C(=O)NCCCCCCCCCCNc3c4c(nc5ccccc35)CCCC4)oc2c1.Cl` for Cholinesterase (Homo sapiens).
10.00

What reported pIC50 corresponds to `Cl.O=C(NCCCCCCCCCCNc1c2c(nc3cc(Cl)ccc13)CCCC2)c1cc(=O)c2c(O)cc(O)cc2o1` on Cholinesterase (Homo sapiens)?
8.60
